Test: NCI Yeast Anticancer Drug Screen. Data for the sgs1 mgt1 strain (AID 161)
Conditions: S. cerevisiae sgs1 mgt1 strain, at 50.0 µM
Compounds without any hit were thinned out: in the full panel of roughly 79,000, 15% have a hit. Calls of active or inactive are those of the source. Rule as the data show it: active = growth inhibition above about 70%; inactive = the rest.
Thanks in advance; please answer with one of these: active, inactive

{"compound": "Cn1ncc2c(=O)[nH]c(N)nc21", "labelValue": "inactive"}
{"compound": "COc1cc2c(cc1OC)C(CS(C)=O)Cc1cc(OC)c(OC)cc1N(C)CCC2 (stereo not drawn)", "labelValue": "inactive"}

Hi, sorry to bother you, what did the test record for Nc1ccnc2cc(Cl)ccc12 ? inactive

Hi, sorry to bother you, what did the test record for Cc1cc(N/N=C/c2ccnc3ccccc23)c2cc3c(cc2n1)OCO3 ? inactive

Hi, sorry to bother you, what did the test record for COc1ccc2ccccc2c1C(=O)/C=C/c1ccccc1 ? inactive

Hi, sorry to bother you, what did the test record for CCOC(=O)C[n+]1cccc(Br)c1 ? inactive

Hi, sorry to bother you, what did the test record for CC1CCCC2C(=O)OC(=O)C12 (stereo not drawn) ? inactive

Hi, sorry to bother you, what did the test record for COc1cc(C2c3cc4c(cc3OC(NC3CCCCC3)C2C)OCO4)cc(OC)c1OC (stereo not drawn) ? inactive

Hi, sorry to bother you, what did the test record for O=C1CCCCCCCCCCOCCCCO1 ? inactive

Hi, sorry to bother you, what did the test record for CCN(CC)CCc1c2c(nc3ccccc13)C(=O)c1cccnc1C2=O ? active

Hi, sorry to bother you, what did the test record for CCCCOCN(COCCCC)CC(C)(C)C ? inactive

Hi, sorry to bother you, what did the test record for C#CCN(CCO)Cc1ccccc1 ? inactive

Hi, sorry to bother you, what did the test record for COC(=O)C1(CC(=O)c2ccc(C)cc2)NC(=S)NC(=O)C1C#N (stereo not drawn) ? inactive
